Tested on: Fusobacterium nucleatum subsp. animalis
Test: growth AUC relative to DMSO control (median of replicates) (fraction); higher = more growth (less inhibition), active = hit call of the paper
Conditions: 20 µM; 24 h

# molecule, growth AUC
measured = [
    ("COc1ncc(F)c2nc(S(=O)(=O)Nc3c(F)cccc3F)nn12", 1.02),
    ("CCC(C)(C)C(=O)OC1=C(c2ccc(Cl)cc2Cl)C(=O)OC12CCCCC2", 0.968),
    ("CC(C)OC(=O)Nc1ccccc1", 1.02),
    ("Oc1c(Br)cc(Br)cc1Br", 1.03),
    ("CN/C(=N\\[N+](=O)[O-])NCc1cnc(Cl)s1", 1.09),
    ("Nc1nc(N)nc(Cl)n1", 1.08),
]
